Source listed as the supplement of paper PMC9112550.

# System: Escherichia coli TOP10
# assay-info: shrunken log2 fold change of peptide-encoding DNA abundance (4.5 h post-induction vs induction); higher = less antimicrobial activity (less host growth inhibition)
# measurement-conditions: time post-induction: 4.5 h; library: site-saturation at positions 5, 18, 19, 20
Category scheme (shrunken log2 fold change): lo = under -0.1, med = from -0.1 up to 0.2, hi = 0.2 and over

GET /class?item= RRIRQRPPRLPRPRPRPPVMPRP lo

GET /class?item= RRIRWRPPRLPRPRPRPTAKPRP med

GET /class?item= RRIRDRPPRLPRPRPRPTWPPRP hi

GET /class?item= RRIRPRPPRLPRPRPRPVRYPRP hi

GET /class?item= RRIRERPPRLPRPRPRPDQWPRP med

GET /class?item= RRIRHRPPRLPRPRPRPAMMPRP lo

GET /class?item= RRIRSRPPRLPRPRPRPLQVPRP lo

GET /class?item= RRIRVRPPRLPRPRPRPDVQPRP med

---

# Test system: Escherichia coli TOP10;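 also: peptides expressed intracellularly from a pBAD plasmid library in pooled LB shake-flask culture, induced with 0.3% L-arabinose, DNA abundance read by NGS, three biological replicates, DESeq2 with apeglm shrinkage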
# assay-info: shrunken log2 fold change of peptide-encoding DNA abundance (4.5 h post-induction vs induction); higher = less antimicrobial activity (less host growth inhibition)
# measurement-conditions: time post-induction: 4.5 h; library: site-saturation at positions 5, 18, 19, 20
Decision: shrunken log2 fold change compared against -0.03; not below it gives TRUE, below it gives FALSE.

Say whether RRIRPRPPRLPRPRPRPNGWPRP shows shrunken log2 fold change of -0.03 or more. TRUE

Say whether RRIRARPPRLPRPRPRPEYWPRP shows shrunken log2 fold change of -0.03 or more. TRUE

Say whether RRIRCRPPRLPRPRPRPFHGPRP shows shrunken log2 fold change of -0.03 or more. FALSE

Say whether RRIRVRPPRLPRPRPRPHQHPRP shows shrunken log2 fold change of -0.03 or more. FALSE

Say whether RRIRQRPPRLPRPRPRPPWRPRP shows shrunken log2 fold change of -0.03 or more. TRUE

Say whether RRIRERPPRLPRPRPRPVRSPRP shows shrunken log2 fold change of -0.03 or more. TRUE

Say whether RRIRNRPPRLPRPRPRPEACPRP shows shrunken log2 fold change of -0.03 or more. TRUE

Say whether RRIRGRPPRLPRPRPRPWGAPRP shows shrunken log2 fold change of -0.03 or more. TRUE

Say whether RRIRDRPPRLPRPRPRPMQAPRP shows shrunken log2 fold change of -0.03 or more. TRUE

Say whether RRIRCRPPRLPRPRPRPAQCPRP shows shrunken log2 fold change of -0.03 or more. FALSE

Say whether RRIRFRPPRLPRPRPRPHCIPRP shows shrunken log2 fold change of -0.03 or more. FALSE

Say whether RRIRFRPPRLPRPRPRPGDWPRP shows shrunken log2 fold change of -0.03 or more. TRUE

Say whether RRIRRRPPRLPRPRPRPLGNPRP shows shrunken log2 fold change of -0.03 or more. TRUE

Say whether RRIRNRPPRLPRPRPRPTRCPRP shows shrunken log2 fold change of -0.03 or more. TRUE

Say whether RRIRRRPPRLPRPRPRPMYGPRP shows shrunken log2 fold change of -0.03 or more. TRUE

Say whether RRIRFRPPRLPRPRPRPAERPRP shows shrunken log2 fold change of -0.03 or more. TRUE

Say whether RRIRCRPPRLPRPRPRPQDYPRP shows shrunken log2 fold change of -0.03 or more. FALSE

Say whether RRIRFRPPRLPRPRPRPYPFPRP shows shrunken log2 fold change of -0.03 or more. FALSE

Say whether RRIRGRPPRLPRPRPRPWKVPRP shows shrunken log2 fold change of -0.03 or more. TRUE

Say whether RRIRCRPPRLPRPRPRPMVPPRP shows shrunken log2 fold change of -0.03 or more. FALSE

Say whether RRIRVRPPRLPRPRPRPAAIPRP shows shrunken log2 fold change of -0.03 or more. FALSE

Say whether RRIRTRPPRLPRPRPRPNCHPRP shows shrunken log2 fold change of -0.03 or more. FALSE

Say whether RRIRHRPPRLPRPRPRPFWRPRP shows shrunken log2 fold change of -0.03 or more. FALSE

Say whether RRIRSRPPRLPRPRPRPSRDPRP shows shrunken log2 fold change of -0.03 or more. TRUE

Say whether RRIRLRPPRLPRPRPRPRPSPRP shows shrunken log2 fold change of -0.03 or more. TRUE

Say whether RRIRTRPPRLPRPRPRPCNFPRP shows shrunken log2 fold change of -0.03 or more. FALSE

Say whether RRIRTRPPRLPRPRPRPYSWPRP shows shrunken log2 fold change of -0.03 or more. FALSE

Say whether RRIRGRPPRLPRPRPRPMPYPRP shows shrunken log2 fold change of -0.03 or more. TRUE

Say whether RRIRFRPPRLPRPRPRPRESPRP shows shrunken log2 fold change of -0.03 or more. TRUE

Say whether RRIRWRPPRLPRPRPRPTVRPRP shows shrunken log2 fold change of -0.03 or more. TRUE

Say whether RRIRLRPPRLPRPRPRPTTSPRP shows shrunken log2 fold change of -0.03 or more. TRUE

Say whether RRIRYRPPRLPRPRPRPFQAPRP shows shrunken log2 fold change of -0.03 or more. FALSE

Say whether RRIRWRPPRLPRPRPRPYCWPRP shows shrunken log2 fold change of -0.03 or more. FALSE

Say whether RRIRKRPPRLPRPRPRPHQDPRP shows shrunken log2 fold change of -0.03 or more. TRUE

Say whether RRIRWRPPRLPRPRPRPTIKPRP shows shrunken log2 fold change of -0.03 or more. FALSE

Say whether RRIRRRPPRLPRPRPRPRRKPRP shows shrunken log2 fold change of -0.03 or more. TRUE

Say whether RRIRRRPPRLPRPRPRPFHAPRP shows shrunken log2 fold change of -0.03 or more. TRUE

Say whether RRIRNRPPRLPRPRPRPFVGPRP shows shrunken log2 fold change of -0.03 or more. FALSE

Say whether RRIRVRPPRLPRPRPRPMKLPRP shows shrunken log2 fold change of -0.03 or more. TRUE

Say whether RRIRPRPPRLPRPRPRPAALPRP shows shrunken log2 fold change of -0.03 or more. TRUE

Say whether RRIRRRPPRLPRPRPRPMGEPRP shows shrunken log2 fold change of -0.03 or more. TRUE

Say whether RRIRRRPPRLPRPRPRPEYHPRP shows shrunken log2 fold change of -0.03 or more. TRUE

Say whether RRIRVRPPRLPRPRPRPPMRPRP shows shrunken log2 fold change of -0.03 or more. TRUE

Say whether RRIRVRPPRLPRPRPRPVREPRP shows shrunken log2 fold change of -0.03 or more. TRUE

Say whether RRIRERPPRLPRPRPRPLMHPRP shows shrunken log2 fold change of -0.03 or more. FALSE

Say whether RRIRIRPPRLPRPRPRPVIQPRP shows shrunken log2 fold change of -0.03 or more. FALSE

Say whether RRIRQRPPRLPRPRPRPVGFPRP shows shrunken log2 fold change of -0.03 or more. TRUE

Say whether RRIRLRPPRLPRPRPRPDILPRP shows shrunken log2 fold change of -0.03 or more. FALSE

Say whether RRIRQRPPRLPRPRPRPTFQPRP shows shrunken log2 fold change of -0.03 or more. TRUE

Say whether RRIRIRPPRLPRPRPRPKIRPRP shows shrunken log2 fold change of -0.03 or more. FALSE

Say whether RRIRIRPPRLPRPRPRPWYAPRP shows shrunken log2 fold change of -0.03 or more. FALSE

Say whether RRIRERPPRLPRPRPRPNPQPRP shows shrunken log2 fold change of -0.03 or more. TRUE

Say whether RRIRMRPPRLPRPRPRPMTKPRP shows shrunken log2 fold change of -0.03 or more. TRUE

Say whether RRIRFRPPRLPRPRPRPTPGPRP shows shrunken log2 fold change of -0.03 or more. TRUE
